Record form. Attribute: cytotoxicity at 70.5 h. Fill in for each entry.
# assay-text: Human HepG2 cell viability assay in 384 well format
# Assay type: toxicity, cell-based
# Parameters: dose 125 nL, time 70.5 hour; concentration not given beside the values
# measurement-context: HepG2 cells, read-out: Inhibition
Please reply with the bare figure in % and do not write the unit itself.

GET /value?item= `Cc1cc(N2CCN(C(=O)[C@@H]3C[C@@H]4C=C[C@H]3C4)CC2)cc(C)n1` &field=cytotoxicity at 70.5 h returns -15.6

GET /value?item= `Cc1cc(NCCN)nc(-c2ccccc2O)n1` &field=cytotoxicity at 70.5 h returns 35.9

GET /value?item= CC1=C(C(N)=O)C(c2cn(C)nc2C)N2C(=O)CSC2=N1 (stereo unspecified) &field=cytotoxicity at 70.5 h returns -9.38

GET /value?item= `Cc1ccc(NS(=O)(=O)c2cc3c(c(C(=O)O)c2)OCCO3)cc1F` &field=cytotoxicity at 70.5 h returns -3.64

GET /value?item= Cc1nc(CCNC(=O)NCC(c2ccco2)N(C)C)cs1 (stereo unspecified) &field=cytotoxicity at 70.5 h returns -14.9

GET /value?item= OCCC1CCN(c2ccnc3ccsc23)C1 (stereo unspecified) &field=cytotoxicity at 70.5 h returns -3.95

GET /value?item= CCc1nc2n(n1)CC(NCc1nc3ccccc3o1)CC2 (stereo unspecified) &field=cytotoxicity at 70.5 h returns -8.97

GET /value?item= `CN(CC(=O)N1CCN(CC(C)(C)O)CC1)c1ccc(Cl)cn1` &field=cytotoxicity at 70.5 h returns -17.3

GET /value?item= Cc1n[nH]c(C2CN(CC(=O)NCc3ccco3)CCO2)n1 (stereo unspecified) &field=cytotoxicity at 70.5 h returns 15.9

GET /value?item= `CCOc1nc2cccnc2n(CC(=O)NCCOC)c1=O` &field=cytotoxicity at 70.5 h returns -14.5

GET /value?item= `CN(c1cccc2ccccc12)S(=O)(=O)c1cc(C(=O)O)cs1` &field=cytotoxicity at 70.5 h returns -0.615
